Entry source: patent US20250276955A1

Assay: 293T relative cell viability
Settings: human, 293T cells
METRIC_NAME: cytotoxicity at 3 day, 10 μM (%)
Note: unit % is implicit; provide only the numeric part.

Problem: So what's the measured cytotoxicity at 3 day, 10 μM for this one? "CCC[C@H](NC(=O)c1cccc2nc(-c3cncc4ccccc34)n([C@H]3C[C@H](C(=O)NC)C3)c12)c1ccc(OC(F)F)cc1"
Solution: 6

Problem: Continue with COc1cc(-c2cccc3[nH]ncc23)cc(C=O)c1OCC(=O)N1CCC(Oc2cccc(C(=O)N(C)C)c2)C1 (stereo not drawn)
Solution: 21

Problem: Continue with "CNCc1cc(-c2cccc3[nH]ncc23)cc(OC)c1OCC(=O)N(C)C"
Solution: 4

###

Test: Metabolic stability in mouse liver microsomes
Type: in vitro ADME
Settings: mouse, liver microsomes; Table 4; read-out: MLM t1/2
METRIC_NAME: half-life at 2 μM (min)
Note: unit min is implicit; provide only the numeric part.

Problem: So what's the measured half-life at 2 μM for this one? COc1cc(-c2cccc3[nH]ncc23)cc(C=O)c1OCC(=O)N1CCC(Oc2cccc(C(=O)N(C)C)c2)C1 (centres unmarked)
Solution: 10.7

Problem: Continue with "CCC[C@H](NC(=O)c1cccc2nc(-c3cncc4ccccc34)n([C@H]3C[C@H](C(=O)NC)C3)c12)c1ccc(OC(F)F)cc1"
Solution: 35.1

###

Tested on: SARS-COV-2 (USA_WA1/2020 isolate) in VERO E6 cells
Test: Real-Time Cell Analysis (RTCA) assay of SARS-COV-2 replication
Format: cell-based
Settings: Severe acute respiratory syndrome coronavirus 2, Vero C1008; VERO E6 cells, 75 h; read-out: IC50, inhibition of SARS-COV-2 induced cell death (RTCA)
METRIC_NAME: IC50 (µM)
Note: unit µM is implicit; provide only the numeric part.

Problem: Record lookup: for SARS-COV-2 (USA_WA1/2020 isolate) in VERO E6 cells, what IC50 belongs to "COc1cc(-c2cccc3[nH]ncc23)cc(C=O)c1OCC(=O)N(C)C" ?
Solution: 5.19
